Target: Tubulin (Sus scrofa) (UniProt P02554+P02550)
Sequence (P02550 whole entry, looked up): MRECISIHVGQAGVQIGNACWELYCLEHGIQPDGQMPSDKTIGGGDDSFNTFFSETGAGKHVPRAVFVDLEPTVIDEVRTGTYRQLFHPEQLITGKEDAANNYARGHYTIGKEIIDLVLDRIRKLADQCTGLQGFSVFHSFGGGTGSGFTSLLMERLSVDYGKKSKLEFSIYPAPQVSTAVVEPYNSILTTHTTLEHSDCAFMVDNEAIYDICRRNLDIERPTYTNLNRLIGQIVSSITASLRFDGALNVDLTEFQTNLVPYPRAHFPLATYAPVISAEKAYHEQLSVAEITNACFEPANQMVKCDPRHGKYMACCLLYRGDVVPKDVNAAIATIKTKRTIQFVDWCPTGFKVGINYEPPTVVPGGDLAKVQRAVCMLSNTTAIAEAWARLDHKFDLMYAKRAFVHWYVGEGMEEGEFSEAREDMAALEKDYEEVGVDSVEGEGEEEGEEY
Sequence (P02554 whole entry, looked up): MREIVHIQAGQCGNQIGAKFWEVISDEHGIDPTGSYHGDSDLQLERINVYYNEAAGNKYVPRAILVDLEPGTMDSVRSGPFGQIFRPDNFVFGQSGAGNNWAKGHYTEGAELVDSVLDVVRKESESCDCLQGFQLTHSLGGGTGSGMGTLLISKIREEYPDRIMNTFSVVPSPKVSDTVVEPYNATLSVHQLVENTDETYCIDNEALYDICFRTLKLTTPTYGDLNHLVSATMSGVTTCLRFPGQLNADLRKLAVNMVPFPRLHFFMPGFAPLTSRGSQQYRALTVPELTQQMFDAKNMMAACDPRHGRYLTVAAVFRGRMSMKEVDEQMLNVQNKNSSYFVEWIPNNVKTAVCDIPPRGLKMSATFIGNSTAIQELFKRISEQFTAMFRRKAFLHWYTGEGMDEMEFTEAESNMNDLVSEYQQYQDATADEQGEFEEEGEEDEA
Assay: Inhibition of porcine tubulin polymerization at 10 uM preincubated at 37 degC for 30 mins followed by chilling to 0 degC and subsequent addition of GTP by microtiter plate based absorbance detection assay relative to control
Assay type: protein assay
Residues, ends and D or L forms follow the SMILES beside them. *: point of attachment. X1 = COc1ccc(/C=C\c2cc(OC)c(OC)c(OC)c2)cc1N*; Bz = O=C(c1ccccc1)*
Observed property: inhibition

COc1ccc(/C=C\c2cc(OC)c(OC)c(OC)c2)cc1NC(=O)[C@H](CO)NC(=O)[C@H](CCCNC(=N)N)NC(=O)[C@H](CCCCN)NC(=O)c1ccccc1	-4.2%
COc1ccc(/C=C\c2cc(OC)c(OC)c(OC)c2)cc1N	33.1%
COc1ccc(/C=C\c2cc(OC)c(OC)c(OC)c2)cc1NC(=O)CNC(=O)[C@H](CCCNC(=N)N)NC(=O)[C@H](CCCNC(=N)N)NC(=O)c1ccccc1	26%
COc1ccc(/C=C\c2cc(OC)c(OC)c(OC)c2)cc1NC(=O)CCNC(=O)[C@H](CCCNC(=N)N)NC(=O)[C@H](CCCNC(=N)N)NC(=O)c1ccccc1	3.4%
COc1ccc(/C=C\c2cc(OC)c(OC)c(OC)c2)cc1NC(=O)CN	61%

Need inhibition for each of these molecules.
1. COc1ccc(/C=C\c2cc(OC)c(OC)c(OC)c2)cc1NC(=O)[C@H](CO)NC(=O)[C@H](CCCNC(=N)N)NC(=O)[C@H](CCCNC(=N)N)NC(=O)c1ccccc1
2. COc1ccc(/C=C\c2cc(OC)c(OC)c(OC)c2)cc1NC(=O)CNC(=O)[C@H](CCCNC(=N)N)NC(=O)[C@H](CCCCN)NC(=O)c1ccccc1

Result:
1. 1.9%
2. -5.7%

// for each molecule below, give its inhibition
1. COc1ccc(/C=C\c2cc(OC)c(OC)c(OC)c2)cc1NC(=O)CNC(=O)CNC(=O)[C@H](CCCNC(=N)N)NC(=O)[C@H](CCCNC(=N)N)NC(=O)c1ccccc1 (Bz-RRGG-X1)
2. COc1ccc(/C=C\c2cc(OC)c(OC)c(OC)c2)cc1NC(=O)[C@H](C)NC(=O)[C@H](CCCNC(=N)N)NC(=O)[C@H](CCCNC(=N)N)NC(=O)c1ccccc1
3. COc1ccc(/C=C\c2cc(OC)c(OC)c(OC)c2)cc1NC(=O)[C@H](C)N
4. COc1ccc(/C=C\c2cc(OC)c(OC)c(OC)c2)cc1O
5. COc1ccc(/C=C\c2cc(OC)c(OC)c(OC)c2)cc1NC(=O)[C@H](C)NC(=O)[C@H](CCCNC(=N)N)NC(=O)[C@H](CCCCN)NC(=O)c1ccccc1

Result:
1. 13.4%
2. 3.4%
3. 40.5%
4. 60.3%
5. -4.9%
